Would you kindly list Enzyme Activity Endpoint Assay: Fc for each of these proteins?
# system-under-test: pooled human IgG

protein | measured-value
PRT-5 (protein) MANQEIRYSEVTPYHVTSVWTKGVTPPANFTQGEDVFHAPYVANQGWYDITKTFNGKDDLLCGAATAGNMLHWWFDQNKDQIERYLKKHPEKQKINFNGEQMFDVKEAIDTKNSQLDSKLFEYFKEKAFPYLSTKHLGVFPDHVIDMFINGYRLSLTNHGPTPVKEGSKDPRGGIFDAVFTRGDQSKLLTSRHDFKEKNLKEISDLIKKELTEGKALGLSHTYANVRINHVINLWGADFDSNGNLEAIYVTDSDSNASIGMKKYFVGVNSAGKVAISAKEIKEDNIGAQVLGLFTLSTGQDIWNQTN | 117 ng/µL

Now, please, on to the next protein.
Q) Data request, read-out Enzyme Activity Endpoint Assay: Fc, for PRT-9 (protein) MANQEIRYSEETPYHVTSVWTKGVTPPANFTQGEDVFHAPYVANQGWYDITKTFNGKDDLLCGAATAGNMLHWWFDQNKEQIERYLKEHPEKQKINFNGEQMFDVKEAIDTKNSQLDSKLFEYFKEKAFPYLSTKHLGVFPDHVIDMFINGYRLSLTNHGPTPVKEGSKDPRGGIFDAVFTRGDQSKLLTSRHDFKEKTLKEISDLIKKELTEGKALALSHTYANVRINHVINLWGADFDSNGNLKAIYVTDSDSNASIGMKKYFVGVNSAGKVAISAKEIKEDNIGAQVLGLFTLSSGQDIWNQTN
A) 103 ng/µL
